Reported pIC50 values are given for each entry in this list.
measurement_target: Interleukin-23 receptor (Homo sapiens, UniProt Q5VWK5)
Sequence (Q5VWK5 whole entry): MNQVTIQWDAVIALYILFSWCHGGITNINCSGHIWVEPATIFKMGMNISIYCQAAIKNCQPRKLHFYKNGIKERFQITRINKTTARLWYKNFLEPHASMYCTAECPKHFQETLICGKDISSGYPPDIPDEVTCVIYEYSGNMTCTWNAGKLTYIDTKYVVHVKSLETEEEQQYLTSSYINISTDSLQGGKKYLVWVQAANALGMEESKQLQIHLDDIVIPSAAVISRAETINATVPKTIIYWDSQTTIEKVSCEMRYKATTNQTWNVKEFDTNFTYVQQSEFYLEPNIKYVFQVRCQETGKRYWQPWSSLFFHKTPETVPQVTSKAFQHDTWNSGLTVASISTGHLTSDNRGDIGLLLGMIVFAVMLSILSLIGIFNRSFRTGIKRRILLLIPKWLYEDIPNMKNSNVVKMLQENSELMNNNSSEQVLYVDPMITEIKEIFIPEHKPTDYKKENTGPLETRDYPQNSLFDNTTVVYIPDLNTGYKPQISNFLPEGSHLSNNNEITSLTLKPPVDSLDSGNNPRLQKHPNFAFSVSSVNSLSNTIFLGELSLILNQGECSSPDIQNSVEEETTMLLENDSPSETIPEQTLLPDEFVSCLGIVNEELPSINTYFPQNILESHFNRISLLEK
assay_notes: Inhibition of interleukin-23 receptor in human natural killer cells assessed as reduction in IL23/IL18-induced IFNgamma production incubated for 20 to 24 hrs by ELISA
Assay type: cell-based
pIC50: −log10 of the molar value.

compound_smiles	pIC50
CC(=O)NCCCC[C@H](NC(=O)C(C)(C)NC(=O)[C@H](Cc1ccc2ccccc2c1)NC(=O)[C@H](Cc1ccc(C(N)=O)cc1)NC(=O)[C@@H](NC(=O)[C@H](CCC(N)=O)NC(=O)[C@H](Cc1c[nH]c2ccccc12)NC(=O)[C@@H](NC(=O)[C@H](CC(N)=O)NC(=O)[C@@H](NC(C)=O)C(C)(C)S)[C@@H](C)O)C(C)(C)S)C(=O)N[C@@H](CC(N)=O)C(=O)N[C@@H](CC(N)=O)C(N)=O	> 8.00
CC(=O)NCCCC[C@H](NC(=O)C(C)(C)NC(=O)[C@H](Cc1ccc2ccccc2c1)NC(=O)[C@H](Cc1ccc(OCCN)cc1)NC(=O)[C@@H]1CSCC[C@H](NC(C)=O)C(=O)N[C@@H](CCC(N)=O)C(=O)N[C@@H]([C@@H](C)O)C(=O)N[C@@H](Cc2c[nH]c3ccccc23)C(=O)N[C@@H](CCC(N)=O)C(=O)N1)C(=O)N[C@@H](CC(N)=O)C(=O)N[C@@H](C)C(N)=O	> 7.60
COc1ccc(C[C@H](NC(=O)[C@H](Cc2ccc(OCCN)cc2)NC(=O)[C@@H]2CSCC[C@H](NC(C)=O)C(=O)N[C@@H](CCC(N)=O)C(=O)N[C@@H]([C@@H](C)O)C(=O)N[C@@H](Cc3c[nH]c4ccccc34)C(=O)N[C@@H](CCC(N)=O)C(=O)N2)C(=O)N[C@@](C)(CCCCN)C(=O)N[C@@H](CCCCNC(C)=O)C(=O)N[C@@H](CC(N)=O)C(=O)NCC(N)=O)cc1OC	> 7.60
CC(=O)N[C@H]1CCSC[C@@H](C(=O)N[C@@H](Cc2ccc(OCCN)cc2)C(=O)N[C@@H](Cc2ccc3ccccc3c2)C(=O)NC2(C(=O)N[C@@H](CCC(=O)O)C(=O)N[C@@H](CC(N)=O)C(=O)N[C@@H](CC(N)=O)C(N)=O)CCC2)NC(=O)[C@H](CCC(N)=O)NC(=O)[C@H](Cc2c[nH]c3ccccc23)NC(=O)[C@H]([C@@H](C)O)NC(=O)[C@H](CCC(N)=O)NC1=O	> 7.60
CC(=O)NCCCC[C@H](NC(=O)[C@](C)(CCCCNC(C)=O)NC(=O)[C@H](Cc1ccc2ccccc2c1)NC(=O)[C@H](Cc1ccc(OCCNC(C)=O)cc1)NC(=O)[C@@H]1CSCC[C@H](NC(C)=O)C(=O)N[C@@H](CCC(N)=O)C(=O)N[C@@H]([C@@H](C)O)C(=O)N[C@@H](Cc2c[nH]c3ccccc23)C(=O)N[C@@H](CCC(N)=O)C(=O)N1)C(=O)N[C@@H](CC(N)=O)C(=O)NCC(N)=O	> 7.60
CC(=O)NCCCC[C@H](NC(=O)[C@](C)(CCCCN)NC(=O)[C@H](Cc1ccc2ccccc2c1)NC(=O)[C@H](Cc1ccc(C(N)=O)cc1)NC(=O)[C@@H](NC(=O)[C@H](CCC(N)=O)NC(=O)[C@H](Cc1c[nH]c2ccccc12)NC(=O)[C@@H](NC(=O)[C@H](CCC(N)=O)NC(=O)[C@@H](NC(C)=O)C(C)(C)S)[C@@H](C)O)C(C)(C)S)C(=O)N[C@@H](CC(N)=O)C(=O)N[C@@H](CC(N)=O)C(N)=O	> 8.00

###

Reported half-life at 20 µM values are given for each entry in this list.
assay_notes: Half life in simulated gastric fluid at 20 uM by LC-MS/MS analysis
Format: ADME
*1 amine or outer side, *2 acyl side, *3 side chain or, on linkers, in order; H or OH if unused. Where a SMILES comes first, the peptide text is derived from it. Bridges are numbered along the chain shown (N, C = ends). [ ]: non-standard residue; d: D form. Abu(4-yl) = O=C([C@H](CC[*:3])N[*:1])[*:2]; 2Nal = N[C@@H](Cc1ccc2ccccc2c1)C(=O)O; AEF = NCCOc1ccc(C[C@H](N)C(=O)O)cc1; Aib = CC(C)(N)C(=O)O

compound	half-life at 20 µM
CC(=O)NCCCC[C@H](NC(=O)[C@](C)(CCCCNC(C)=O)NC(=O)[C@H](Cc1ccc2ccccc2c1)NC(=O)[C@H](Cc1ccc(OCCNC(C)=O)cc1)NC(=O)[C@@H]1CSCC[C@H](NC(C)=O)C(=O)N[C@@H](CCC(N)=O)C(=O)N[C@@H]([C@@H](C)O)C(=O)N[C@@H](Cc2c[nH]c3ccccc23)C(=O)N[C@@H](CCC(N)=O)C(=O)N1)C(=O)N[C@@H](CC(N)=O)C(=O)NCC(N)=O	< 1 h
CC(=O)NCCOc1ccc(C[C@H](NC(=O)[C@@H](NC(=O)[C@H](CCC(N)=O)NC(=O)[C@H](Cc2c[nH]c3ccccc23)NC(=O)[C@@H](NC(=O)[C@H](CCC(N)=O)NC(=O)[C@@H](NC(C)=O)C(C)(C)S)[C@@H](C)O)C(C)(C)S)C(=O)N[C@@H](Cc2ccc3ccccc3c2)C(=O)NC(C)(C)C(=O)N[C@@H](CCC(=O)O)C(=O)N[C@@H](CC(N)=O)C(=O)N[C@@H](CC(N)=O)C(N)=O)cc1	> 6 h
COc1ccc(C[C@H](NC(=O)[C@@H]2CSCC[C@H](NC(C)=O)C(=O)N[C@@H](CCC(N)=O)C(=O)N[C@@H]([C@@H](C)O)C(=O)N[C@@H](Cc3c[nH]c4ccccc34)C(=O)N[C@@H](CCC(N)=O)C(=O)N2)C(=O)N[C@@H](Cc2cccc3ccccc23)C(=O)N[C@@](C)(CCCCN)C(=O)N[C@@H](CCCCNC(C)=O)C(=O)N[C@@H](CC(N)=O)C(=O)NCC(N)=O)cc1	< 1 h
CC(=O)N[C@H]1CCSC[C@@H](C(=O)N[C@@H](Cc2ccc(OCCN)cc2)C(=O)N[C@@H](Cc2ccc3ccccc3c2)C(=O)NC(C)(C)C(=O)N[C@@H](CCC(N)=O)C(=O)N[C@@H](CC(N)=O)C(=O)NCC(N)=O)NC(=O)[C@H](CCC(N)=O)NC(=O)[C@H](Cc2c[nH]c3ccccc23)NC(=O)[C@H]([C@@H](C)O)NC(=O)[C@H](CCC(N)=O)NC1=O (Ac-[Abu(4-yl)]QTWQC[AEF][2Nal][Aib]QNG-NH2; thioether 1-6)	3 to 6 h
COc1ccc(C[C@H](NC(=O)[C@@H](NC(=O)[C@H](CCC(N)=O)NC(=O)[C@H](Cc2c[nH]c3ccccc23)NC(=O)[C@@H](NC(=O)[C@H](CCC(N)=O)NC(=O)[C@@H](NC(C)=O)C(C)(C)S)[C@@H](C)O)C(C)(C)S)C(=O)N[C@@H](Cc2ccc3ccccc3c2)C(=O)NC(C)(C)C(=O)N[C@@H](CCC(=O)O)C(=O)N[C@@H](CC(N)=O)C(=O)N[C@@H](CC(N)=O)C(N)=O)cc1	> 6 h

###

measurement_target: Interleukin-23 receptor (Homo sapiens)
assay_notes: Inhibition of interleukin-23 binding to human interleukin-23 receptor incubated for 2 hrs by competitive binding ELISA
pIC50: −log10 of the molar value. Where a SMILES comes first, the peptide text is derived from it.

compound	pIC50
CC(=O)N[C@@H](C)C(=O)N[C@H](C(=O)N[C@@H](CC(=O)O)C(=O)N[C@@H](Cc1c[nH]c2ccccc12)C(=O)N[C@H](C(=O)N[C@H](C(=O)N[C@@H](Cc1ccc(O)cc1)C(=O)N[C@@H](Cc1c[nH]c2ccccc12)C(=O)N[C@@H](CCCNC(=N)N)C(=O)N[C@@H](CCCCN)C(=O)N[C@@H](Cc1ccccc1)C(=O)NCC(=O)NCCOCC(=O)N[C@H](CCCCN)C(N)=O)C(C)(C)S)C(C)C)C(C)(C)S	< 4.52
CC(=O)N[C@@H](CS)C(=O)N[C@@H](C)C(=O)N[C@@H](CC(=O)O)C(=O)N[C@@H](Cc1c[nH]c2ccccc12)C(=O)N[C@H](C(=O)N[C@@H](CS)C(=O)N[C@@H](Cc1ccc(O)cc1)C(=O)N[C@@H](Cc1c[nH]c2ccccc12)C(=O)N[C@@H](Cc1cnc[nH]1)C(=O)N[C@@H](Cc1ccccc1)C(=O)N[C@@H](Cc1cnc[nH]1)C(=O)N[C@@H](CCC(N)=O)C(=O)N[C@@H](CC(C)C)C(=O)N[C@@H](CCCNC(=N)N)C(=O)N[C@@H](CC(=O)O)C(=O)N[C@@H](C)C(N)=O)C(C)C (Ac-CADWVCYWHFHQLRDA-NH2)	6.00 to 6.30
CC(=O)N[C@@H](CS)C(=O)N[C@@H](CCC(N)=O)C(=O)N[C@H](C(=O)N[C@@H](Cc1c[nH]c2ccccc12)C(=O)N[C@@H](CCC(N)=O)C(=O)N[C@@H](CS)C(=O)N[C@@H](Cc1ccc(O)cc1)C(=O)N[C@@H](Cc1c[nH]c2ccccc12)C(=O)N[C@@H](CCCNC(=N)N)C(=O)N(C)[C@@H](CCCCN)C(=O)N[C@@H](CC(N)=O)C(=O)NCC(=O)NCCOCC(=O)N[C@H](CCCCN)C(N)=O)[C@@H](C)O	< 6.00
CC(=O)N[C@@H](CS)C(=O)N[C@@H](C)C(=O)N[C@@H](CC(=O)O)C(=O)N[C@@H](Cc1c[nH]c2ccccc12)C(=O)N[C@H](C(=O)N[C@@H](CS)C(=O)N[C@@H](Cc1ccc(O)cc1)C(=O)N[C@@H](Cc1ccc(-c2ccccc2)cc1)C(=O)N[C@@H](Cc1cnc[nH]1)C(=O)N[C@H](C(=O)N[C@@H](Cc1ccccc1)C(=O)NCC(=O)NCCOCC(=O)N[C@H](CCCCN)C(N)=O)[C@@H](C)O)C(C)C	< 6.00
C[C@H](NC(=O)[C@@H](N)CS)C(=O)N[C@@H](CC(=O)O)C(=O)N[C@@H](Cc1c[nH]c2ccccc12)C(=O)N(C)CC(=O)N[C@@H](CS)C(=O)N[C@@H](Cc1ccc(O)cc1)C(=O)N[C@@H](Cc1cccc2ccccc12)C(=O)N[C@@H](Cc1cnc[nH]1)C(=O)N[C@H](C(=O)N[C@@H](Cc1ccccc1)C(=O)O)[C@@H](C)O	< 6.00
